Assay: Bioavailability in Sprague-Dawley rat
Type: ADME, organism-based
Conditions: in vivo
test.readout: bioavailability (%)

• C[C@]1(c2ccc(O)cc2)CSc2cc(O)ccc2[C@H]1CCCCCCCCC[S+]([O-])CCCC(F)(F)C(F)(F)F (stereo partly drawn) = 22
• C[C@]12CC[C@@H]3c4ccc(O)cc4C[C@@H](CCCCCCCCC[S+]([O-])CCCC(F)(F)C(F)(F)F)[C@H]3[C@@H]1CC[C@@H]2O (stereo partly drawn) [FULVESTRANT] = 16
• C[C@]1(c2ccc(O)cc2)CSc2cc(O)ccc2[C@H]1CCCCCCCCC(CCCC(F)(F)C(F)(F)F)C(=O)O (stereo partly drawn) = 46

---

Each item that follows carries a reported inhibition in vivo at 30 mg/kg.
System: Mus musculus
Experiment: Antagonist activity assessed as inhibition of estrogen-stimulated uterine weight gain in ovariectomized mouse at 30 mg/kg, po
Assay type: functional
test.readout: inhibition in vivo at 30 mg/kg (%)

- C[C@]1(c2ccc(O)cc2)CSc2cc(O)ccc2[C@H]1CCCCCCCCC(CCCCCC(F)(F)C(F)(F)F)C(=O)O (some centres not stated): 94
- C[C@]1(c2ccc(O)cc2)CSc2cc(O)ccc2[C@H]1CCCCCCCCC(CCC(F)(F)C(F)(F)C(F)(F)C(F)(F)F)C(=O)O (some centres not stated): 96
- C[C@]1(c2ccc(O)cc2)CSc2cc(O)ccc2[C@H]1CCCCCCCCC(CCCC(F)(F)C(F)(F)C(F)(F)C(F)(F)F)C(=O)O (some centres not stated): 99
- C[C@]1(c2ccc(O)cc2)CSc2cc(O)ccc2[C@H]1CCCCCCCCC(CCCC(F)(F)C(F)(F)F)C(=O)O (some centres not stated): 94
- C[C@]1(c2ccc(O)cc2)CSc2cc(O)ccc2[C@H]1CCCCCCCCCC(CCCCC(F)(F)C(F)(F)F)C(=O)O (some centres not stated): 96
- C[C@]1(c2ccc(O)cc2)CSc2cc(O)ccc2[C@H]1CCCCCCCCCC(CCC(F)(F)C(F)(F)C(F)(F)C(F)(F)F)C(=O)O (some centres not stated): 99
- C[C@]1(c2ccc(O)cc2)CSc2cc(O)ccc2[C@H]1CCCCCCCCC(CCCCC(F)(F)C(F)(F)F)C(=O)O (some centres not stated): 97
